GI50 values, listed per item
- System: A498
- assay.remarks: NCI tumour cell line growth inhibition, 48 h
Activity calls are given as the source filed them. Rule as the data show it: active = GI50 up to about 1.1 µM and inactive = higher.

[
  {
    "smiles.structure": "COc1cc2c(cc1O)NC(=O)[C@@H]1CCCN1C2=O",
    "GI50": "> 100 µM (inactive)"
  },
  {
    "smiles.structure": "CCN(CCCl)c1cc(CN(C)C)cc(NC(=O)c2cc(C(=O)Nc3cc(CN(C)C)cc(N(CC)CCCl)c3)n(C)n2)c1",
    "GI50": "2 µM (inactive)"
  }
]

Look up GI50 for this compound: Cc1c(-c2ccccc2)c(=O)oc2ccc(Cl)cc12
> 100 µM (inactive)

Look up GI50 for this compound: Cn1c(N=P(c2ccccc2)(c2ccccc2)c2ccccc2)c([N+](=O)[O-])c(=O)n(C)c1=O
59.7 µM (inactive)

Look up GI50 for this compound: CC(C)=CC(=O)c1[nH]c2ccccc2c1CC(=O)NCCc1cn(C(c2ccccc2)(c2ccccc2)c2ccccc2)cn1
4.22 µM (inactive)

Data origin: ChEMBL document CHEMBL1201862
